Sourced from patent US6143764A

target: PDGF receptor (Rattus norvegicus, UniProt Q05030); construct: cultured rat mesangial cells which are known to have the PDGF receptor; endogenous in cells; assay: PDGF receptor autophosphorylation inhibition in cultured rat mesangial cells; details: PDGF-BB 50 ng/ml
Sequence (Q05030 32-1097): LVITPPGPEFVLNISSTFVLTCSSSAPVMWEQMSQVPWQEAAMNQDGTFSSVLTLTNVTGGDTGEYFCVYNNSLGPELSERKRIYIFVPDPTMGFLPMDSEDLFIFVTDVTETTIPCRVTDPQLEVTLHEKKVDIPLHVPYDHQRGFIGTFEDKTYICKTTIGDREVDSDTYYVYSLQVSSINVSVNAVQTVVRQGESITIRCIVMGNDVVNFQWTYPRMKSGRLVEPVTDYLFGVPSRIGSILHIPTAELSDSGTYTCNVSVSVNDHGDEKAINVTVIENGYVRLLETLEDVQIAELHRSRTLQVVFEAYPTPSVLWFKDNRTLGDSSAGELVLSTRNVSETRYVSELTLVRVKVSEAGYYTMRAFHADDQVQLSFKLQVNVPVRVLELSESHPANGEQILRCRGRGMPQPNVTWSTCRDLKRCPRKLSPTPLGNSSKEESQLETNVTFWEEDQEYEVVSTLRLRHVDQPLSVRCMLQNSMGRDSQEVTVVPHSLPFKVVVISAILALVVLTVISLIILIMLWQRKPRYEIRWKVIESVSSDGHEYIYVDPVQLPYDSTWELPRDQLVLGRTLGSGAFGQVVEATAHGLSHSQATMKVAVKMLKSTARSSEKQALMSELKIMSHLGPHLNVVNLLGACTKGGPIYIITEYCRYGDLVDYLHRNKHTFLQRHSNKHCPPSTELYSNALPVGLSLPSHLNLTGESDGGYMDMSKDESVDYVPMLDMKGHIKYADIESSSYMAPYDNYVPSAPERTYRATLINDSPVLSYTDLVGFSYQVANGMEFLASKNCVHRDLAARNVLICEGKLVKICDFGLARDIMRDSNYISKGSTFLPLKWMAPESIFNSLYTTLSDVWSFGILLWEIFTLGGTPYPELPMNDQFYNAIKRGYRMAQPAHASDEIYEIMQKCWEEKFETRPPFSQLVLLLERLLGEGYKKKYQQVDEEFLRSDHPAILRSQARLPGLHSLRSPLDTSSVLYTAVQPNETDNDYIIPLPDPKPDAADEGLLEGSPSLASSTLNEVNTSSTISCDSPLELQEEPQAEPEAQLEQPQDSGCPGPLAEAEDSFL
Recorded Endpoint: IC50 (nM)

• CCCCNC(=O)Nc1ccc(Oc2ccnc3cc(OC)c(OC)cc23)cc1 [Compound 139] = 5
• COc1cc2nccc(Oc3ccc(NC(=O)Nc4cccc(F)c4F)cc3)c2cc1OC [Compound 260] = 2

[1] COc1cc2nccc(Oc3ccc(NC(=O)Nc4cccc(F)c4)cc3)c2cc1OC [Compound 59]
[2] COc1cc2nccc(Oc3ccc(NC(=O)Nc4cccc(C(=O)O)c4)cc3)c2cc1OC [Compound 283]
Input line: Min IC50? 1 | 2 Mark your answer with the label of the selected entry.
Output line: 2
(2: 2 nM, 1: 4 nM)

---

target: PDGF receptor (Rattus norvegicus); construct: cultured rat mesangial cells which are known to have the PDGF receptor; endogenous in cells; assay: PDGF receptor autophosphorylation inhibition in cultured rat mesangial cells; details: PDGF-BB 50 ng/ml
pIC50: −log10 of the molar value.
Recorded Endpoint: pIC50

Example results:
- COc1cc2nccc(Oc3ccc(NC(=O)Nc4ccc(C(C)=O)cc4)cc3)c2cc1OC: 7.74
- COc1cc2nccc(Oc3ccc(NC(=O)Nc4ccccc4Cl)cc3)c2cc1OC: 9.00
- COc1cc2nccc(Oc3ccc(NC(=O)Nc4ccc(Cl)c([N+](=O)[O-])c4)cc3)c2cc1OC: 7.26
- COc1cccc(Oc2ccnc3cc(OC)c(OC)cc23)c1: 6.36
- COc1cc2nccc(Oc3ccc(C(=O)c4ccc(N5CCCCC5)cc4)cc3)c2cc1OC: 7.26
- COc1cc2nccc(Oc3ccc(NC(=O)Nc4ccc(Cl)cc4C)cc3)c2cc1OC: 7.74
- COc1ccccc1NC(=O)Nc1ccc(Oc2ncnc3cc(OC)c(OC)cc23)cc1: 8.40
- COc1cc2nccc(Oc3ccc(NC(=O)NCc4ccccn4)cc3)c2cc1OC: 8.05

[I] COc1cc(NC(=O)Nc2ccc(Oc3ccnc4cc(OC)c(OC)cc34)cc2)cc(OC)c1
[II] COc1cc2nccc(Oc3ccc(C(=O)c4ccc(N5CCOCC5)cc4)cc3)c2cc1OC
[III] CCCCNC(=O)Nc1ccc(Oc2ncnc3cc(OC)c(OC)cc23)cc1
[IV] COc1ccc(Cl)cc1NC(=O)Nc1ccc(Oc2ccnc3cc(OC)c(OC)cc23)cc1
[V] COc1cc2nccc(Oc3ccc(NC(=O)Nc4ccccc4C(F)(F)F)cc3)c2cc1OC
Input line: Rank order required: pIC50, descending. Give your ranking as a list of the labels in the requested order.
Output line: V, I, III, II, IV

[a] COc1cc2nccc(Oc3cccc(NC(=O)Nc4ccccc4C(F)(F)F)c3)c2cc1OC
[b] COc1cccc(NC(=O)Nc2ccc(Oc3ncnc4cc(OC)c(OC)cc34)cc2)c1
Input line: Min pIC50? a | b Mark your answer with the label of the selected entry.
Output line: a
(a: 7.64, b: 8.40)

[1] C=CCNC(=O)Nc1ccc(Oc2ccnc3cc(OC)c(OC)cc23)cc1
[2] COc1cc2nccc(Oc3ccc(NC(=O)Nc4cc(OC)c(OC)c(OC)c4)cc3)c2cc1OC
Input line: Min pIC50? 1 | 2 Mark your answer with the label of the selected entry.
Output line: 1
(1: 7.80, 2: 8.40)
